Target: T1, human soluble urokinase plasminogen activator receptor (hsuPAR) (human, UniProt Q03405 23-303, limits assumed)
T1 construct: Target antigen of the off-rate screen; also called human suPAR; rhuPAR-His
T1 sequence (Q03405 23-303 limits assumed): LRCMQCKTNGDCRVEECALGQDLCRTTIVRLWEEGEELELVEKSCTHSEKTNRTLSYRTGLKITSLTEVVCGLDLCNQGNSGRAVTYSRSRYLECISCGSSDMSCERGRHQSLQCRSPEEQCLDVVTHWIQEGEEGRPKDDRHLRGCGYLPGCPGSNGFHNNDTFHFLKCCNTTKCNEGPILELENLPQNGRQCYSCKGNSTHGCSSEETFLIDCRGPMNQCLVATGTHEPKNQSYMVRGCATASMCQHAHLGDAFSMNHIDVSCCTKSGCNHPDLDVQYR
Assay: BLI (Octet) off-rate screen of scFv clones
recorded metric: koff (s⁻¹)
Number only, in s⁻¹; omit the unit.

These recorded examples may help you get a feel for the data.
binder: suPAR_DB03_C07 (scFv, V domains shown, screened as scFv) VH: QVQLVQSGAEVKKPGASVKVSCKASGYTFTNYYVHWVRQAPGQGLEWMGWIDHENGSTIYDQKFQGRVTMTRDTSTSTVYMELSSLRSEDTAVYYCARGYDVDWFVYWGQGTLVTVSS VL: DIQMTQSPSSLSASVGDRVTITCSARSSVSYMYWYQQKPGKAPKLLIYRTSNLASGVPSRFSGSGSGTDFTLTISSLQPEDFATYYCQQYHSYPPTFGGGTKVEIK
recorded metric: koff
readout units: s⁻¹
observed result: 0.00166

binder: suPAR_DB03_D09 (scFv, V domains shown, screened as scFv) VH: QVQLVQSGAEVKKPGASVKVSCKASGYTFTGYYMHWVRQAPGQGLEWMGWIDHENGSTIYAQKFQGRVTMTRDTSTSTVYMELSSLRSEDTAVYYCARGYDVDWFVYWGQGTLVTVSS VL: DIQMTQSPSSLSASVGDRVTITCSARSSVSYMYWYQQKPGKAPKLLIYRTSNLQSGVPSRFSGSGSGTDFTLTISSLQPEDFATYYCQQYHSYPPTFGGGTKVEIK
recorded metric: koff
readout units: s⁻¹
observed result: 0.000746

Please examine the following record next.
Using known records, supply koff for suPAR_DB03_E04 (scFv, V domains shown, screened as scFv) VH: QVQLVQSGAEVKKPGASVKVSCKASGYTFTGHYMHWVRQAPGQGLEWMGWIDPENGSTIYDQKFQGRVTMTRDTSTSTVYMELSSLRSEDTAVYYCARGYDVDWFVYWGQGTLVTVSS VL: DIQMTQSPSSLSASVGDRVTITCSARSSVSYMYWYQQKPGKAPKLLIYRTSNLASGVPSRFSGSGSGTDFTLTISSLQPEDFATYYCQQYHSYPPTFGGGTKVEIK 0.00556

Reference source for all entries: patent US20250215104A1
